# MEASUREMENT_NOTES: Pharmacokinetics of single oral doses of nirogacestat dihydrobromide
# Type: in vivo, human
# APPLIED_CONDITIONS: human, in vivo, po, 100 mg, COHORT 2: 100 mg, Period 1, read-out: AUCinf, Geometric Mean
Where a name gives a salt, the structure may show the parent alone.
EXPERIMENTAL_ENDPOINT: AUC(0-inf) (ng·h/mL)
One number for each entry, in ng·h/mL.

Problem: Entry CCC[C@H](N[C@H]1CCc2cc(F)cc(F)c2C1)C(=O)Nc1cn(C(C)(C)CNCC(C)(C)C)cn1 [nirogacestat dihydrobromide] has what AUC(0-inf)?
Result: 1780
